UFH (aPTT) EC50 reference
System: unfractionated heparin (UFH)
Experiment: aPTT clotting assay, UFH 0.2 U/mL in plasma (Example 7)
Type: biochemical
Conditions: UFH 0.2 U/mL in plasma
Starred links: 1 amine or outer side, 2 acyl side, 3 side chain; linkers in the order of their positions; H or OH if unused. Non-standard residues stand in square brackets, D forms with d. Residues, ends and D or L forms follow the SMILES beside them. *: point of attachment. NH(3-CONH2-4-OMe-phenyl) = COc1ccc(N*)cc1C(N)=O; 3Abz(6-OMe) = COc1ccc(N[*:1])cc1C(=O)[*:2]
Return type: number; implicit unit µg/mL.

Here's what some known entries look like.
| compound | UFH (aPTT) EC50, µg/mL |
| --- | --- |
| COc1ccc(NC(=O)[C@@H](CCCN)NC(=O)c2cc(NC(=O)[C@@H](CCCNC(=N)N)NC(=O)c3cc(NC(=O)[C@@H](CCCNC(=N)N)NC(=O)c4cc(NC(=O)CCCCN)ccc4OC)ccc3OC)ccc2OC)cc1C(N)=O | 1.72 |
| COc1ccc(NC(=O)[C@@H](CCCNC(=N)N)NC(=O)c2cc(NC(=O)[C@H](C)NC(=O)[C@@H](CCCNC(=N)N)NC(=O)c3cc(NC(=O)[C@@H](CCCNC(=N)N)NC(=O)c4cc(NC(=O)[C@H](N)CCCNC(=N)N)ccc4OC)ccc3OC)ccc2OC)cc1C(N)=O [Compound 75] (H-[dR][3Abz(6-OMe)][dR][3Abz(6-OMe)][dR]A[3Abz(6-OMe)][dR]-{NH(3-CONH2-4-OMe-phenyl)}) | 4.80 |
| COc1ccc(NC(=O)[C@@H](CCCNC(=N)N)NC(=O)c2cc(NC(=O)[C@@H](CCCNC(=N)N)NC(=O)c3cc(NC(=O)[C@@H](CCCNC(=N)N)NC(=O)c4cc(NC(=O)[C@H](N)CO)ccc4OC)ccc3OC)ccc2OC)cc1C(N)=O | 1.55 |

Data request: Please look at this compound and report its UFH (aPTT) EC50: COc1ccc(NC(=O)[C@H](CCCCN)NC(=O)c2cc(NC(=O)[C@H](CCCCN)NC(=O)c3cc(NC(=O)[C@H](CCCCN)NC(=O)c4cc(NC(=O)[C@@H](N)CCCCN)ccc4OC)ccc3OC)ccc2OC)cc1C(=O)NCC(=O)O
Data returned: 1.34

Origin of the recorded values: patent US20110178104A1
